- assay.explanation: Clearance in dog at 0.25 mg/kg, iv and 2 mg/kg, po
- Type: ADME, organism-based, Canis lupus familiaris
- assay.conditions: in vivo
metric.name: clearance (mL/min/kg)

A. Cc1nnc(-c2ccc(F)c(-c3c(=O)ccn4c(-c5ccc(F)cc5F)cccc34)c2)o1
B. O=c1ccn2c(-c3ccc(F)cc3F)cccc2c1-c1cc(-c2nnco2)ccc1F
[ask] For the pair A and B , which member has the lower clearance number? Could you answer with the label of the item you picked?
[reply] B
(B: 0.49 mL/min/kg, A: 0.88 mL/min/kg)

###

- assay.explanation: Oral bioavailability in rat at 2 mg/kg
- Assay type: ADME, organism-based
- assay.conditions: in vivo
metric.name: bioavailability (%)

A. O=c1ccn2c(-c3ccc(F)cc3F)cccc2c1-c1cc(-c2nnco2)ccc1F
B. Cc1nnc(-c2ccc(F)c(-c3c(=O)ccn4c(-c5ccc(F)cc5F)cccc34)c2)o1
[ask] For the pair A and B , which member has the lower bioavailability number? Could you answer with the label of the item you picked?
[reply] B

###

- assay.explanation: AUC in dog at 0.25 mg/kg, iv and 2 mg/kg, po
- Type: ADME, organism-based, Canis lupus familiaris
- assay.conditions: plasma
metric.name: AUC (µM·h)

smiles.notation	AUC [µM·h]
O=c1ccn2c(-c3ccc(F)cc3F)cccc2c1-c1cc(-c2nnco2)ccc1F	49.3
Cc1nnc(-c2ccc(F)c(-c3c(=O)ccn4c(-c5ccc(F)cc5F)cccc34)c2)o1	58.6

###

- assay.explanation: Half life in rat at 1 mg/kg, iv and 2 mg/kg, po
- Assay type: ADME, organism-based
- assay.conditions: in vivo
metric.name: half-life (h)

smiles.notation	assay.value
Cc1nnc(-c2ccc(F)c(-c3c(=O)ccn4c(-c5ccc(F)cc5F)cccc34)c2)o1	1.4
O=c1ccn2c(-c3ccc(F)cc3F)cccc2c1-c1cc(-c2nnco2)ccc1F	1.8

###

- assay.explanation: Half life in dog
- Assay type: ADME, organism-based, Canis lupus familiaris
- assay.conditions: in vivo
metric.name: half-life (h)
Report as a plain number; the unit h is understood.

[ask] Give its half-life value. Item: O=c1ccn2c(-c3ccc(F)cc3F)cccc2c1-c1c(F)cccc1F
[reply] 20

###

# pIC50 measurements, system: Mitogen-activated protein kinase 14 (Mus musculus)
pIC50: −log10 of the molar value.
metric.name: pIC50

// below: answered compounds
smiles.notation	subject.of.test	assay.value
NC(=O)c1cc(F)c(-c2c(=O)ccn3c(-c4ccc(F)cc4F)cccc23)c(F)c1	Mitogen-activated protein kinase 14 (Mus musculus)	7.70
Cc1noc(-c2cc(F)c(-c3c(=O)ccn4c(-c5ccc(F)cc5F)cccc34)c(F)c2)n1	Mitogen-activated protein kinase 14 (Mus musculus)	8.06

I. O=c1ccn2c(-c3ccc(F)cc3F)cccc2c1-c1cc(-c2nnco2)ccc1F
II. O=c1ccn2c(-c3ccc(F)cc3F)cccc2c1-c1c(F)cc(-c2nnco2)cc1F
III. Nc1cc2c(ccc(=O)n2-c2c(F)cccc2F)c(-c2ccc(F)cc2F)n1
[ask] Rank order required: pIC50, descending. Answer format: list of labels, ordered as asked.
[reply] III, II, I
(III: 9.22, II: 8.28, I: 7.89)

###

- assay.explanation: Lipophilicity, log D of the compound
- Type: physicochemical
- assay.conditions: octanol/water
metric.name: logD

smiles.notation	assay.value
O=c1ccn2c(-c3ccc(F)cc3F)cccc2c1-c1c(F)cccc1F	2.5

a. O=C1NCc2c(-c3ccc(F)cc3F)cc(N3CCNCC3)cc2N1c1c(Cl)cccc1Cl
b. Nc1cc2c(ccc(=O)n2-c2c(F)cccc2F)c(-c2ccc(F)cc2F)n1
[ask] a or b : whose logD is greater? Could you answer with the label of the item you picked?
[reply] a
(a: 4.2, b: 2.7)

###

- assay.explanation: Half life in monkey at 0.25 mg/kg, iv and 2 mg/kg, po
- Type: ADME, organism-based, Macaca mulatta
- assay.conditions: rhesus monkey, in vivo
metric.name: half-life (h)

A. Cc1nnc(-c2ccc(F)c(-c3c(=O)ccn4c(-c5ccc(F)cc5F)cccc34)c2)o1
B. O=c1ccn2c(-c3ccc(F)cc3F)cccc2c1-c1cc(-c2nnco2)ccc1F
[ask] For the pair A and B , which member has the lower half-life number? Could you answer with the label of the item you picked?
[reply] B

###

- assay.explanation: Half life in dog at 0.25 mg/kg, iv and 2 mg/kg, po
- Type: ADME, organism-based, Canis lupus familiaris
- assay.conditions: in vivo
metric.name: half-life (h)

P. O=c1ccn2c(-c3ccc(F)cc3F)cccc2c1-c1cc(-c2nnco2)ccc1F
Q. Cc1nnc(-c2ccc(F)c(-c3c(=O)ccn4c(-c5ccc(F)cc5F)cccc34)c2)o1
[ask] For the pair P and Q , which member has the lower half-life number? Could you answer with the label of the item you picked?
[reply] Q

###

# IC50 measurements, system: Mitogen-activated protein kinase 14 (Mus musculus, UniProt P47811)
# Sequence (P47811 whole entry): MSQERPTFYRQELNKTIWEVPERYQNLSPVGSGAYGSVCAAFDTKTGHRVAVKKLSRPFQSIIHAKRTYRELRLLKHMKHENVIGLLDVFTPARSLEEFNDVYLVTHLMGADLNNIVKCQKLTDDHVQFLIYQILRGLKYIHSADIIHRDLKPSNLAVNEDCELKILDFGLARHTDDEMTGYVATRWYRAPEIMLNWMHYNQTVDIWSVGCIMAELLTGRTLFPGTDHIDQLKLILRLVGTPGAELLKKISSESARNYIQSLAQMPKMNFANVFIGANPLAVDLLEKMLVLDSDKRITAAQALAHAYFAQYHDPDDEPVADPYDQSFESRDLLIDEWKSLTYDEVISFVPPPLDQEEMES
metric.name: IC50 (nM)

1. N#Cc1cc(F)c(-c2c(=O)ccn3c(-c4ccc(F)cc4F)cccc23)c(F)c1
2. Nc1nnc(-c2cc(F)c(-c3c(=O)ccn4c(-c5ccc(F)cc5F)cccc34)c(F)c2)o1
[ask] 1 or 2 : whose IC50 is greater? Could you answer with the label of the item you picked?
[reply] 2
(2: 6.8 nM, 1: 1.5 nM)

###

- assay.explanation: AUC in rat at 1 mg/kg, iv and 2 mg/kg, po
- Assay type: ADME, organism-based
- assay.conditions: plasma
metric.name: AUC (µM·h)

smiles.notation	AUC [µM·h]
O=c1ccn2c(-c3ccc(F)cc3F)cccc2c1-c1cc(-c2nnco2)ccc1F	25.6
Cc1nnc(-c2ccc(F)c(-c3c(=O)ccn4c(-c5ccc(F)cc5F)cccc34)c2)o1	21.7

###

- subject.of.test: Voltage-gated inwardly rectifying potassium channel KCNH2 (Homo sapiens)
- Sequence (Q12809 whole entry): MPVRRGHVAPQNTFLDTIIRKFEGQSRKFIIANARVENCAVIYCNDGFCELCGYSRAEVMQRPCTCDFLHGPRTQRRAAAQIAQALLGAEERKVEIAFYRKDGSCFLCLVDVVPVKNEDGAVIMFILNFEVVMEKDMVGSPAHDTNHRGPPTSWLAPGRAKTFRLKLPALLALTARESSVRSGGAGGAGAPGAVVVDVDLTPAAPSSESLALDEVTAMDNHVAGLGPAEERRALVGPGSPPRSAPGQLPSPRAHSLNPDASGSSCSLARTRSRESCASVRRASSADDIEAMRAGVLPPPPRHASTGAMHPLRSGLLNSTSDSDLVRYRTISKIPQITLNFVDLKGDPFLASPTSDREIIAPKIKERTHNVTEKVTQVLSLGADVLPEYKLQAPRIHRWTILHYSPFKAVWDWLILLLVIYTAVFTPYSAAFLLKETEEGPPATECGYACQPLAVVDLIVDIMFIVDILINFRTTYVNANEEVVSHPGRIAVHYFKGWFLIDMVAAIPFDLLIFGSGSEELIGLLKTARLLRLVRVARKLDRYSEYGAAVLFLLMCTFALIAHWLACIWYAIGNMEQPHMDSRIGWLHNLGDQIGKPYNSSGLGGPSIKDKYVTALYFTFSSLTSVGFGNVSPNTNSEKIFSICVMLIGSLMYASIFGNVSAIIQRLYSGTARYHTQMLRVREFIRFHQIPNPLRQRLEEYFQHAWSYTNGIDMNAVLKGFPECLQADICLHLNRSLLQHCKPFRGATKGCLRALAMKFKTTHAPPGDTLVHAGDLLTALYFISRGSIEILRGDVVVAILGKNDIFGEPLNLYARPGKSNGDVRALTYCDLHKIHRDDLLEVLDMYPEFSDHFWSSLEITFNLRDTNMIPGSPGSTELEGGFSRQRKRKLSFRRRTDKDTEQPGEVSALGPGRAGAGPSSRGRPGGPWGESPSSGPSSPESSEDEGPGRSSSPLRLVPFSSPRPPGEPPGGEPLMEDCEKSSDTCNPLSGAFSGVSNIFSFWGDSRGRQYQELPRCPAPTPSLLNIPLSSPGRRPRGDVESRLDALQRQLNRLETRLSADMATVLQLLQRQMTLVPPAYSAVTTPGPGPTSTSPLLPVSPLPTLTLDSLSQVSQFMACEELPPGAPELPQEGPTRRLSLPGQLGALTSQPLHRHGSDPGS
metric.name: Ki (µM)
Report as a plain number; the unit µM is understood.

[ask] Give its Ki value. Item: Nc1cc2c(ccc(=O)n2-c2c(F)cccc2F)c(-c2ccc(F)cc2F)n1
[reply] 5.1

###

- assay.explanation: Oral bioavailability in monkey at 2 mg/kg
- Type: ADME, organism-based, Macaca mulatta
- assay.conditions: rhesus monkey, in vivo
metric.name: bioavailability (%)

smiles.notation	units.label	bioavailability
O=c1ccn2c(-c3ccc(F)cc3F)cccc2c1-c1cc(-c2nnco2)ccc1F	%	47
Cc1nnc(-c2ccc(F)c(-c3c(=O)ccn4c(-c5ccc(F)cc5F)cccc34)c2)o1	%	55

###

- assay.explanation: AUC in monkey at 0.25 mg/kg, iv and 2 mg/kg, po
- Assay type: ADME, organism-based, Macaca mulatta
- assay.conditions: rhesus monkey, plasma
metric.name: AUC (µM·h)

a. Cc1nnc(-c2ccc(F)c(-c3c(=O)ccn4c(-c5ccc(F)cc5F)cccc34)c2)o1
b. O=c1ccn2c(-c3ccc(F)cc3F)cccc2c1-c1cc(-c2nnco2)ccc1F
[ask] For the pair a and b , which member has the lower AUC number? Could you answer with the label of the item you picked?
[reply] b
(b: 5.1 µM·h, a: 23.9 µM·h)
